Values compiled from patent US4100285A.

tested on: removed guinea pig heart; assay: Cardiovascular activity measured according to Langedorff's method by using the removed guinea pig heart; conditions: Concentration 10^-4 g/ml; arrow symbols
endpoint_label: Heart Movements: Tonus

>>> endpoint_result("COc1ccc(CN2CCN(CC=C(C)C)CC2)c(OC)c1OC")
"→"
>>> endpoint_result("COc1ccc(CN2CCN(CCN3CCN(Cc4ccc(OC)c(OC)c4OC)CC3)CC2)c(OC)c1OC")
"→"
>>> endpoint_result("COc1ccc(CN2CCN(CC(O)COc3ccccc3)CC2)c(OC)c1OC (stereo not drawn)")
".dwnarw."
>>> endpoint_result("COc1ccc(CN2CCN(CCCCN3CCN(Cc4ccc(OC)c(OC)c4OC)CC3)CC2)c(OC)c1OC")
"→"
>>> endpoint_result("COc1ccc(CN2CCN(CCCCCCN3CCN(Cc4ccc(OC)c(OC)c4OC)CC3)CC2)c(OC)c1OC")
"→"

response.value for COc1ccc(CN2CCN(CC(O)CO)CC2)c(OC)c1OC (stereo not drawn) (field: Heart Movements: Tonus) = →

Consider COc1ccc(CN2CCN(CCN3CCOCC3)CC2)c(OC)c1OC . Its measured Heart Movements: Tonus is →

// field: Heart Movements: Tonus; key: COc1ccc(CN2CCN(CCO)CC2)c(OC)c1OC ; value = .dwnarw.

Per the records, this molecule ( COc1ccc(CN2CCN(CCCCCCCCN3CCN(Cc4ccc(OC)c(OC)c4OC)CC3)CC2)c(OC)c1OC ) has Heart Movements: Tonus equal to .dwnarw.

----------
assay: LD50 on mice; settings: in vivo, ip; mouse
endpoint_label: LD50 (mg/kg)
// note: answer is a bare numeric in mg/kg

>>> endpoint_result("COc1ccc(CN2CCN(CC(O)COc3ccccc3)CC2)c(OC)c1OC (centres unmarked)")
142
>>> endpoint_result("COc1ccc(CN2CCN(CCN3CCOCC3)CC2)c(OC)c1OC")
567
>>> endpoint_result("COc1ccc(CN2CCN(CC(O)CO)CC2)c(OC)c1OC (centres unmarked)")
724

So for COc1ccc(CN2CCN(CCO)CC2)c(OC)c1OC , the logged LD50 turned out to be 567

Kindly note the recorded LD50 for COc1ccc(CN2CCN(CCCCN3CCN(Cc4ccc(OC)c(OC)c4OC)CC3)CC2)c(OC)c1OC , which is 239

Sure, the documented LD50 for COc1ccc(CN2CCN(CC(C)O)CC2)c(OC)c1OC (centres unmarked) is 336

Field LD50 (entry COc1ccc(CN2CCN(CCCCCCN3CCN(Cc4ccc(OC)c(OC)c4OC)CC3)CC2)c(OC)c1OC ) reads 84

Field LD50 (entry COc1ccc(CN2CCN(CC(O)c3ccccc3)CC2)c(OC)c1OC (centres unmarked) ) reads 106

----------
Listing: Heart rate (Δ%) of selected compounds
test system: removed guinea pig heart; assay: Cardiovascular activity measured according to Langedorff's method by using the removed guinea pig heart; settings: Concentration 10^-4 g/ml

// below: answered compounds
>>> endpoint_result("COc1ccc(CN2CCN(CC=Cc3ccccc3)CC2)c(OC)c1OC")
"-60.3 Δ%"
>>> endpoint_result("COc1ccc(CN2CCN(CC(O)COc3ccccc3)CC2)c(OC)c1OC (centres unmarked)")
"-48.7 Δ%"
>>> endpoint_result("COc1ccc(CN2CCN(CCN3CCN(Cc4ccc(OC)c(OC)c4OC)CC3)CC2)c(OC)c1OC")
"-11.7 Δ%"
>>> endpoint_result("COc1ccc(CN2CCN(CCCCCCCCN3CCN(Cc4ccc(OC)c(OC)c4OC)CC3)CC2)c(OC)c1OC")
"-28.6 Δ%"
>>> endpoint_result("COc1ccc(CN2CCN(CCCCCCN3CCN(Cc4ccc(OC)c(OC)c4OC)CC3)CC2)c(OC)c1OC")
"-19.1 Δ%"

Measured Heart rate (Δ%) of COc1ccc(CN2CCN(CCO)CC2)c(OC)c1OC : -10.7 Δ%

Please fill in: Heart rate (Δ%) reported for COc1ccc(CN2CCN(c3nc(N)nc(N)n3)CC2)c(OC)c1OC = -21.9 Δ%

Documented Heart rate (Δ%) of COc1ccc(CN2CCN(CC(O)CO)CC2)c(OC)c1OC (centres unmarked) : -16.1 Δ%

----------
test system: removed guinea pig heart; experiment: Cardiovascular activity measured according to Langedorff's method by using the removed guinea pig heart; details: Concentration 10^-4 g/ml
Catalogue of Heart rate (Δ%) values

The examples below pair each entry with its known result.
>>> endpoint_result("COc1ccc(CN2CCN(CC(O)c3ccccc3)CC2)c(OC)c1OC (centres unmarked)")
"-54.5 Δ%"
>>> endpoint_result("COc1ccc(CN2CCN(CCCCN3CCN(Cc4ccc(OC)c(OC)c4OC)CC3)CC2)c(OC)c1OC")
"-37.5 Δ%"
>>> endpoint_result("COc1ccc(CN2CCN(CCN3CCOCC3)CC2)c(OC)c1OC")
"-8.6 Δ%"

Data point: COc1ccc(CN2CCN(CC=C(C)C)CC2)c(OC)c1OC ; Heart rate (Δ%) = -18.2 Δ%

Form field Heart rate (Δ%), entry COc1ccc(CN2CCN(CC(C)O)CC2)c(OC)c1OC (centres unmarked) : -49.4 Δ%
